Origin of the recorded values: ChEMBL document CHEMBL1148936

System: Cladosporium sphaerospermum
Test: Antifungal activity against Cladosporium sphaerospermum assessed as minimum concentration required to inhibit growth after 72 hrs by TLC
Type: functional
Below: a set of entries, each annotated with reported log10(Activity).
Note: values are log10 of Activity expressed in µg.

Here are 5 compounds together with their reported answers.
- Compound: "CC(C)=CCC[C@@]1(C)C=Cc2cc(C(=O)O)cc(CC=C(C)C)c2O1"
  Measured Parameter: "log10(Activity)"
  Value Observed: 1.00
- Compound: "COC(=O)c1cc(C(=O)C=C(C)C)ccc1OC"
  Measured Parameter: "log10(Activity)"
  Value Observed: 0.70
- Compound: "CC(C)=CCCC(C)(O)CC(=O)c1cc(C(=O)O)ccc1O (stereo unspecified)"
  Measured Parameter: "log10(Activity)"
  Value Observed: -0.30
- Compound: "COC(=O)c1cc(O)c2c(c1)C=CC(C)(C)O2"
  Measured Parameter: "log10(Activity)"
  Value Observed: 0.70
- Compound: "O=C1C[C@@H](c2ccccc2)Oc2cc(O)cc(O)c21"
  Measured Parameter: "log10(Activity)"
  Value Observed: 0.00

Moving on to the next compound.
[in] Reported log10(Activity) for `COC(=O)c1cc2c(c(CC=C(C)C)c1)OC(C)(C)C=C2` : what is it?
[out] -1.00

====

Test system: Cladosporium sphaerospermum
Assay: Antifungal activity against Cladosporium sphaerospermum assessed as minimum concentration required to inhibit growth after 72 hrs by TLC
Type: functional
Measured Parameter: Activity (µg)
Enter your answer as a number in µg; do not include the unit.

[in] Field request: Activity | item: `COC(=O)c1ccc2c(c1)C=CC(C)(C)O2`
[out] 5

[in] Which Activity is listed for `CC(C)=CCC/C(C)=C/C(=O)c1cc(O)ccc1O` ?
[out] 1

[in] Given `CC1(C)C=Cc2cc(C(=O)O)ccc2O1` , state its recorded Activity.
[out] 5

[in] What value of Activity has been recorded for this entry: `CC(C)=CCC/C(C)=C/Cc1cc(C(=O)O)ccc1O`
[out] 5

[in] What value of measured Activity is listed for `COC(=O)c1ccc(O)c(CC=C(C)C)c1` ?
[out] 1

[in] Name the reported Activity value associated with the compound Clc1ccc(COC(Cn2ccnc2)c2ccc(Cl)cc2Cl)c(Cl)c1 (stereo not given) [MICONAZOLE]
[out] 1

[in] Name the reported Activity value associated with the compound C=C(C)C(O)Cc1cc(C(=O)OC)ccc1O (stereo not given)
[out] 5

[in] Record request: Activity value, item COC(=O)c1ccc(O)c(CC(O)C(C)(C)O)c1 (stereo not given) [HOSTMANIANE]
[out] 0.5

[in] Name the reported Activity value associated with the compound `COc1cc(CCC(=O)O)cc(OC)c1OC`
[out] 10

[in] Field request: Activity | item: COc1cc(O)c2c(c1)O[C@H](c1ccc(O)cc1)CC2=O [SAKURANETIN]
[out] 1
